PROCEDURE_SUMMARY: MRT (0 to infinity) in male Sprague-Dawley rat at 1.5 mg/kg, iv administered as single dose by LC-MS/MS analysis
Assay type: ADME, organism-based
COND: in vivo
MEASURE: MRT inf
Report as: number unit

Endpoint output: MRT inf of COC(=O)N1N=C(c2cccc(C)c2)CC1c1cc(OC)c(OC)c(OC)c1 (stereo unspecified) . Value? 1 h

----------
System: A2780
PROCEDURE_SUMMARY: Antiproliferative activity against human A2780 cells after 48 hrs by MTT assay
Type: functional
COND: A2780, 48 h
Binary call on GI50 with cut-off 7 µM: strictly below means met, and equality or higher means not met.

Record excerpt, results attached:
COc1ccc(C2=NN(C(=O)OCc3ccccc3)C(c3cc(OC)c(OC)c(OC)c3)C2)cc1 (centres undefined)    not met
CCCOC(=O)N1N=C(c2cccc(O)c2)CC1c1cc(OC)c(OC)c(OC)c1 (centres undefined)    not met
COC(=O)N1N=C(c2cccc(O)c2)CC1c1cc(OC)c(OC)c(OC)c1 (centres undefined)    met
CCOC(=O)N1N=C(c2ccccc2)CC1c1cc(OC)c(OC)c(OC)c1 (centres undefined)    met
COC(=O)N1N=C(c2ccccc2)CC1c1cc(OC)c(OC)c(OC)c1 (centres undefined)    met

Just wondering, is GI50 of CCCOC(=O)N1N=C(c2cccc(OC)c2)CC1c1cc(OC)c(OC)c(OC)c1 (centres undefined) below 7 µM? not met

Record CCOC(=O)N1N=C(c2cccc(OC)c2)CC1c1cc(OC)c(OC)c(OC)c1 (centres undefined) : is its GI50 strictly below 7 µM? not met

Check if GI50 falls below 7 µM for COc1cccc(C2=NN(C(=O)OCc3ccccc3)C(c3cc(OC)c(OC)c(OC)c3)C2)c1 (centres undefined) . not met

Determine whether this compound shows GI50 lower than 7 µM (ties excluded): CCCOC(=O)N1N=C(c2ccccc2)CC1c1cc(OC)c(OC)c(OC)c1 (centres undefined) not met

Please indicate whether the reported GI50 of COC(=O)N1N=C(c2ccccc2)CC1c1ccc(OC)c(O)c1 (centres undefined) is strictly below 7 µM. met

Bench note: check whether COC(=O)N1N=C(c2ccccc2)CC1c1ccccc1 (centres undefined) shows GI50 below 7 µM not met

I wonder whether COC(=O)N1N=C(c2ccccc2)CC1c1ccc(OC)c(OC)c1 (centres undefined) has GI50 below 7 µM. Can you tell? not met

Lab log: compare recorded GI50 with 7 µM; is it strictly lower for COC(=O)N1N=C(c2cccc(C)c2)CC1c1cc(OC)c(OC)c(OC)c1 (centres undefined) ? met

Field: below-cutoff. Rule: recorded GI50 strictly less than 7 µM. Subject: COc1ccc(/C=C\c2cc(OC)c(OC)c(OC)c2)cc1OP(=O)([O-])[O-].[Na+].[Na+] [FOSBRETABULIN DISODIUM] met

Please let me know if COC(=O)N1N=C(c2ccccc2)CC1c1ccc(OC)cc1 (centres undefined) shows GI50 below 7 µM. not met

Is GI50 of COC(=O)N1N=C(c2cc(OC)c(OC)c(OC)c2)CC1c1cc(OC)c(OC)c(OC)c1 (centres undefined) strictly below 7 µM? not met

Given CCOC(=O)N1N=C(c2ccc(OC)cc2)CC1c1cc(OC)c(OC)c(OC)c1 (centres undefined) , is recorded GI50 strictly lower than 7 µM? not met
